test system: MDA-MB-231 breast; assay: NCI-60 one-dose screen, 48 h; details: 10 µM
About 83,000 compounds went through this panel and 20% of them were active in at least one assay; those are over-represented in the sample as a whole. Calls of active or inactive are those of the source. How the source made its calls: active means growth percent below 10; inactive means the rest.
// allowed return values: 1 (yes) for active, 0 (no) for inactive

What was the test verdict on CC(Cc1ccc2c(c1)OCO2)NN (stereo unspecified) ?
0 (no)

Short answer needed: outcome of this test for `O=[N+]([O-])c1ccc(Br)c([N+](=O)[O-])c1` ?
0 (no)

In this assay, the call recorded for `C[CH2][Hg][S]c1ccccc1C(=O)O` was what?
1 (yes)

Recorded call for `O=[N+]([O-])c1cc[n+]([O-])c2ccccc12` ?
1 (yes)

// return assay outcome for CCOP(=O)(OCC)C(O)c1ccccc1Cl (stereo unspecified)
0 (no)

Hello, I am checking results. What call was entered for O=C(O)c1cc(Cc2ccc(O)c(C(=O)O)c2)ccc1O (tested in a mixture with another compound) ?
0 (no)

Recorded call for `[Cl][Hg][c]1ccc2ccccc2c1` ?
1 (yes)

// param item: `C[C@]12CC[C@H]3[C@@H](CCC4=CC(=O)CC[C@@H]43)[C@@H]1CC[C@@H]2OC(=O)N(CCCl)N=O` ; yields the recorded call
0 (no)

Please state the recorded outcome for this molecule: `COc1ccccc1/C=C/[N+](=O)[O-]`
0 (no)

Call for entry CC[C@@H](C)[C@@H]1NC(=O)C(NC(=O)C(CC(C)C)N(C)C(=O)C2CCCN2C(=O)C(C)O)C(C)OC(=O)C(Cc2ccc(OC)cc2)N(C)C(=O)C2CCCN2C(=O)C(CC(C)C)NC(=O)C(C)C(=O)C(C(C)C)OC(=O)C[C@H]1O (stereo partly specified) :
1 (yes)

Call for entry COC(C(=O)C(O)C(C)O)C1Cc2cc3cc(OC4CC(OC(C)=O)C(OC5CC(O)C(OC)C(C)O5)C(C)O4)cc(O)c3c(O)c2C(=O)C1OC1CC(OC2CC(OC3CC(C)(O)C(OC(=O)C(C)C)C(C)O3)C(O)C(C)O2)C(O)C(C)O1 (stereo unspecified) :
1 (yes)

Check the results log: what was the call for `C[C@@H]1C[C@@H]([C@H](O)CC2CC(=O)NC(=O)C2)C(=O)[C@@H](C)C1` ?
1 (yes)

Test call, this molecule: CC(C)C1(NC(=O)C2CC3c4cccc5[nH]cc(c45)CC3N(C)C2)OC2(O)C3CCCN3C(=O)C(Cc3ccccc3)N2C1=O (stereo unspecified)
0 (no)

Can you look up the reported call for `[O-][n+]1ccccc1S` for me?
0 (no)

Outcome? `O=S(=O)(F)c1ccc(Cl)cc1`
0 (no)

Field: outcome | Entry: `O=C1C(=O)c2ccccc2-c2ccccc21`
1 (yes)
